Target: HIV-1 Env of isolate 92WR024 (HIV-1)
Assay: cell-based or functional assay
measure: IC50 (µg/mL), pseudovirus neutralization

1) PGT-126 (antibody, V domains shown) VH: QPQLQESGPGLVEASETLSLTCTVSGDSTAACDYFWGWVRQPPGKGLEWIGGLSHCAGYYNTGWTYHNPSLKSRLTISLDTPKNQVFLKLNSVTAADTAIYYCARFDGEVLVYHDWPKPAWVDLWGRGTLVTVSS VL: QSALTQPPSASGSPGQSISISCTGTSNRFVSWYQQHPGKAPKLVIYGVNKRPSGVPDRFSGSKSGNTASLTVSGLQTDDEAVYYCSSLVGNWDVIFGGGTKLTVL = 42
2) PGT-125 (antibody, V domains shown) VH: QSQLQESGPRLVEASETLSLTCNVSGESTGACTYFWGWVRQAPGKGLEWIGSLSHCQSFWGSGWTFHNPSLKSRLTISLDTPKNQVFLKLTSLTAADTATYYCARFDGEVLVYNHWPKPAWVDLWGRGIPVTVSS VL: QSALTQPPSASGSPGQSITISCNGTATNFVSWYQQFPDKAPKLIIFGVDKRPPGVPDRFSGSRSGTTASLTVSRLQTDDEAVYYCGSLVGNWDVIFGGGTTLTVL = 35.5
